SYSTEM: T1, human interleukin-2 receptor β-chain (IL-2Rβ; CD122), recombinant protein (human, UniProt P14784 27-240)
T1 construct: also called human IL-2R subunit CD122
T1 sequence: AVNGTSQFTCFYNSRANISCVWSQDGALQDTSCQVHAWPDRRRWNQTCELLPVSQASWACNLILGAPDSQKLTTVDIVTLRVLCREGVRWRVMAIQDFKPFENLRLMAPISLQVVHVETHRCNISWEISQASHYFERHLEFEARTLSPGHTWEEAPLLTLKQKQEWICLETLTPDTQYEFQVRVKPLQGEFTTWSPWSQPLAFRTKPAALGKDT
METHOD: ELISA, bivalent VHH-hFc
OUTCOME_MEASURE: EC50 (pM)
Numbers only, in pM.

Known results for binders:
>>> obs_value("166-MP02H08 VHH-hFc, monospecific bivalent (Fc fusion, IgG1 Fc LALA-PG; not shown: human IgG1 CH2 and CH3 domains (Fc)) EVQLVESGGGLVQAGDSLRISCAASGRIFSNYAMGWFRQAPGKETEFVAGITHLTSTTHYADSVKGRFTISRDNAKNTMHLQMNNLKPEDTALYYCAADRNIKITADWSYWGQGTQVTVAS")
85
>>> obs_value("17-MP02C09 VHH-hFc, monospecific bivalent (Fc fusion, IgG1 Fc LALA-PG; also called anti-IL-2Rβ Ab 17; not shown: human IgG1 CH2 and CH3 domains (Fc)) QVQLQESGGGLVQAGGSLRLSCVASGSVSSINGMAWYRQGADNQRVLVAAISRVGNTAYGDSVKGRFTISRQNARNTVYLQMNSLKPEDTAVYYCNADSWGGDDYWGQGTQVTVSS")
124
>>> obs_value("23-MP06F03 VHH-hFc, monospecific bivalent (Fc fusion, IgG1 Fc LALA-PG; not shown: human IgG1 CH2 and CH3 domains (Fc)) QVQLVESGGGLVQAGGSLRLSCAVSGDVFVRYTMAWFRQAPGKEREFVASVTDSGRTTDYVHSVKGRFTVSRDNAKNTVYLQMNNLKPEDTAVYYCAANTDYFQIKSLDANTWGQGTQVTVSS")
125
>>> obs_value("20-MP03F10 VHH-hFc, monospecific bivalent (Fc fusion, IgG1 Fc LALA-PG; not shown: human IgG1 CH2 and CH3 domains (Fc)) EVQLVESGGGLVQAGGSLRLSCAASGRDFSSYAMGWFRQAPGKEREFVVAITWTKRSTDFPDSVKGRFTISRDNAKNTVYLDMNSLKPEDTAVYYCASARGLPVTPLGDIIYWGEGTLVTVSS")
218
>>> obs_value("184-MP02E11 VHH-hFc, monospecific bivalent (Fc fusion, IgG1 Fc LALA-PG; not shown: human IgG1 CH2 and CH3 domains (Fc)) QVQLQESGGGLVQAGGSLRLSCAASGRTFSNYVMAWFRQAPGKEREFVGAITQTGRGTFYADSVEGRFTISRINDKNTVYLQMNSLKPEDTAVYYCSAPRSGRAGTRNQMDYEYWGQGTQVTVSS")
59
>>> obs_value("193-MP02F12 VHH-hFc, monospecific bivalent (Fc fusion, IgG1 Fc LALA-PG; not shown: human IgG1 CH2 and CH3 domains (Fc)) QLQLVESGGGLVQTGTSLRLSCAASGHTSRINAMGWFRQFPGKEREFVAAISRNGGSTVYVDSVKGRFTISRDNAKSTVYLQMNSLKPEDTAVYYCTATDAVGWTTRWMTADFGFWGQGTQVTVSS")
87
>>> obs_value("161-MP02C08 VHH-hFc, monospecific bivalent (Fc fusion, IgG1 Fc LALA-PG; not shown: human IgG1 CH2 and CH3 domains (Fc)) EVQLVESGGGLVQAGGSLRLSCAASGSTFSRQPMYWFRQAPGKEREFVAAITWSGRGTLYADSVEGRFTISRDNAKNTVYLQMNSLRPDDTAAYYCAAGPYGDAAYRHGRIDSWGQGTQVTVSS")
84
>>> obs_value("15-MP02E06 VHH-hFc, monospecific bivalent (Fc fusion, IgG1 Fc LALA-PG; also called anti-IL-2Rβ Ab 15; not shown: human IgG1 CH2 and CH3 domains (Fc)) QVQLVESGGGSVQPGGSLRLSCAASGFTFSNYAMSWVRQAPGKGLEWVASITGFGRGTDYADSVKGRFTISRDNAEDTLYLQMNSLKPEDTAVYYCAKYSSSTYYPPTPARGRDYRGQGTQVTVSS")
209
>>> obs_value("16-MP02B08 VHH-hFc, monospecific bivalent (Fc fusion, IgG1 Fc LALA-PG; not shown: human IgG1 CH2 and CH3 domains (Fc)) EVQLVESGGGLVQAGGSLRLSCAASGRAIENYPVGWFRQAPGKEREFVAAITWISGSTLYADSVKGRFTISRDNAKNTVYLQMSSLKPEDTALYYCAAALKTITRGQNDYSYWGQGTQVTVSS")
245
>>> obs_value("297-MP06A08 VHH-hFc, monospecific bivalent (Fc fusion, IgG1 Fc LALA-PG; not shown: human IgG1 CH2 and CH3 domains (Fc)) EVQLVESGGGLVQAGESLRLSCAASGQYFSTYSMAWFRRTPGKEREFVTIISESGGIKEYVDSVKGRFTVSRDNAKNTVYLQMNSLKPEDTAVYYCAAARDWFARNEYQYDYWGQGTQVTVSS")
79

Batch request: EC50 for each of the following binders.
1. 19-MP03F08 VHH-hFc, monospecific bivalent (Fc fusion, IgG1 Fc LALA-PG; not shown: human IgG1 CH2 and CH3 domains (Fc)) EVQLVESGGGLVQTGGSLRLSCAASGGTFSRDAMAWFRQVPGKEREFVALISWSGATTNYADSVKGRFAISRDNGKNTVYLQMNRLKPADTAIYYCAADRRPMGSRSYFEPTEYDDWGQGTQVTVSS
2. 115-MP02E01 VHH-hFc, monospecific bivalent (Fc fusion, IgG1 Fc LALA-PG; not shown: human IgG1 CH2 and CH3 domains (Fc)) EVQLVESGGGLVQIGGSLRLSCAASGRTFSSITMAYFRQVPGKEREWVAGINFSGTRTFYADSVKGRFLISRDDAKSTMYLQMNSLKPEDTAVYYCAASPRGFYGPGNALYDYWGQGTQVTVSS

1. 794
2. 60

For each of the items listed, what is its EC50?
1. 24-MP06E05 VHH-hFc, monospecific bivalent (Fc fusion, IgG1 Fc LALA-PG; not shown: human IgG1 CH2 and CH3 domains (Fc)) QVQLVESGGELVQGGASLRLSCAASGRTFSNANMAWFRQAPEKEREFVALITWSSGSTLYADSVKGRFTISRDNARKMVYLQMNSLKPEDTAVYYCAADGPPYSGTYYRYDTYDYWGQGTQVTVSS
2. 26-MP06A07 VHH-hFc, monospecific bivalent (Fc fusion, IgG1 Fc LALA-PG; not shown: human IgG1 CH2 and CH3 domains (Fc)) QVQLQESGGGLVQAGGSLRLSCAASGDVFVRYTMAWFRQAPGKEREFVASVTDSGRTTEYVDSVKGRFTVSRDNAKNTAYLQMNNLKPEDTAIYYCAANTDYFQIRSLDLNTWGQGTQVTVSS

1. 191
2. 117

binder 126-MP02A03 VHH-hFc, monospecific bivalent (Fc fusion, IgG1 Fc LALA-PG; not shown: human IgG1 CH2 and CH3 domains (Fc)) QVQLVESGGGLVQPGGSLRLSCAASGFTFSNYAMSWVRQAPGKGLEWVSSITGAGRGTYYAESVKGRFTISRDNDKNTLYLQMNSLKPEDTAVYYCAKYDSSTFYPPTPARGIADRGQGTRVTVSS , EC50 observed: 90

Just for reference, patent US20240409645A1 is where these values come from.
